Tested on: MDA-MB-435 melanoma
Assay: NCI-60 one-dose screen, 48 h (100 = growth as untreated, 0 = no growth, -100 = all killed)
Details: 10 µM unless noted
About 83,000 compounds went through this panel and 20% of them were active in at least one assay; those are over-represented in the sample as a whole.
The molecules listed here are annotated with their growth.
Reply numerically in %, unit not repeated.

| molecule | recorded.number |
| --- | --- |
| Fc1ccc(N2COOC3(OOC2)C2CC4CC(C2)CC3C4)cc1 | 94.4 |
| CC1=C(CCCNS(C)(=O)=O)C2=C(C)C3(CC3)[C@@](C)(O)C(=O)C2=C1 | 11.7 |
| COc1ccc2c(c1)c(C1(O)CC(CSC#N)OC1=O)cn2C(=O)c1ccc(Cl)cc1 (centres undefined) | 98.9 |
| CCC[CH2][Sn]([CH2]CCC)([CH2]CCC)[O]c1ccc(Cl)cc1Cl | -60.7 |
| COP(=S)(N1CC1)N1CC1 | 105 |

Data request: What value of growth has been recorded for this entry: "O=C(Nc1ccc(Cl)cc1)Nc1nccs1"
Data returned: -49.4

Data request: Another molecule to check: "CC(=O)O[C@H](C[C@H](C(C)C)N(C)C(=O)[C@@H](NC(=O)[C@H]1CCCCN1C)C(C)(C)C)c1nc(C(=O)N[C@@H](Cc2ccccc2)C[C@H](C)C(=O)O)cs1"
Data returned: -47

Data request: Another molecule to check: CCCCCCCCCCCCNC(c1ccccc1)C(O)c1ccccc1 (centres undefined)
Data returned: 91.4

Data request: Another molecule to check: NC(=O)c1c(Br)n(C2OC(CO)C(O)C2O)c2ncnc(N)c12 (centres undefined)
Data returned: 1.13

Data request: Another molecule to check: CCC1CC(O)c2c(O)c3c(c(O)c2C1O)C(=O)c1cccc(O)c1C3=O (centres undefined) (tested in a mixture with another compound)
Data returned: -90.3

---

Tested on: PC-3 prostate
Test: NCI-60 one-dose screen, 48 h
Details: 10 µM unless noted
This is part of a sample that, as a whole, favours compounds with a hit. Of some 83,000 tested, about 20% had one in any assay. The source made the active and inactive calls. The calls were made as follows: active = growth percent below 10; inactive = the rest.
Write down the outcome that applies. Available outcomes: yes (1) (active), no (0) (inactive)

Reference set, count: 2
| compound | target.of.assay | group.label |
| --- | --- | --- |
| COC(=O)CCc1c[nH]c2ccc(N(CCCl)CCCl)cc12 | PC-3 prostate | no (0) |
| CCC1(C)CC(CCNCc2ccccc2O)(c2ccc(C)cc2)CCO1 (stereo unspecified) | PC-3 prostate | no (0) |

Data request: Field: outcome | Entry: "Nc1ccc(Cl)cc1"
Data returned: no (0)

Data request: Another compound to check: CCCCNC(c1ccc(Cl)cc1)C(O)c1ccc(Cl)cc1 (stereo unspecified)
Data returned: no (0)

Data request: Another compound to check: CCCCCSC1C2C(=O)C(Br)=CC13CCNc1c(O)c4c5c(c13)=[N+]2CCC=5C=N4 (stereo unspecified)
Data returned: yes (1)

Data request: Another compound to check: O=C(O)C(O)C(O)C1[O][Sb]([c]2ccc([N+](=O)[O-])cc2)[O]C1CO (stereo unspecified)
Data returned: no (0)

---

Tested on: KM12 colon
Assay: NCI-60 one-dose screen, 48 h (100 = growth as untreated, 0 = no growth, -100 = all killed)
Conditions: 10 µM unless noted
Compounds without any hit were thinned out: in the full panel of roughly 83,000, 20% have a hit. Calls of active or inactive are those of the source. The calls were made as follows: active = growth percent below 10; inactive = the rest.
reported.endpoint: growth

| compound | target.of.assay | result |
| --- | --- | --- |
| CCOc1ccccc1C(=O)OCC(Cl)(Cl)Cl | KM12 colon | 101% (inactive) |
| O=C(Nc1ccc(O)cc1)C(Cl)(Cl)Cl | KM12 colon | 103% (inactive) |
| Cn1cc(C2=C(c3cn(C4CCN(Cc5ccccn5)CC4)c4ccccc34)C(=O)NC2=O)c2ccccc21 | KM12 colon | 57.2% (inactive) |
| O=C1OCCC1Br (stereo unspecified) | KM12 colon | 108% (inactive) |
| COc1cccc(C=NC(Cc2cnc[nH]2)C(=O)O)c1O (stereo unspecified) | KM12 colon | 104% (inactive) |

Note: attention shifts to another entry.
Data request: What value of growth has been recorded for this entry: "ClCCN(CCCl)c1ccc(/C=N\N=C\c2ccc(N(CCCl)CCCl)cc2)cc1"
Data returned: 30.3% (inactive)

---

The compounds listed here are annotated with their growth.
Tested on: PC-3 prostate
Test: NCI-60 one-dose screen, 48 h (100 = growth as untreated, 0 = no growth, -100 = all killed)
Conditions: 10 µM unless noted
Compounds without any hit were thinned out: in the full panel of roughly 83,000, 20% have a hit.
Reply numerically in %, unit not repeated.

In the examples that follow, each entry is paired with its recorded growth.
| compound | target.of.assay | recorded.number |
| --- | --- | --- |
| O=C(CC1(O)C(=O)Nc2ccccc21)c1ccc(C(=O)NCC2CCC3(CC2)OOC2(CCCCC2)OO3)cc1 (centres undefined) | PC-3 prostate | 50.8 |
| O=C(O)C1C(C(=O)O)C2(Cl)C(Cl)=C(Cl)C1(Cl)C2(Cl)Cl.[Hg] (centres undefined) | PC-3 prostate | 76.2 |
| O=C1NC(=O)C(=Cc2ccc(OCCCCC3CCCCC3)c(Cl)c2)C(=O)N1 | PC-3 prostate | 88.4 |

Data request: What value of growth has been recorded for this entry: "OCCCCCNC1CCCCC1"
Data returned: 101

Data request: Another compound to check: "COC(=O)[C@@H](C)C[C@H](Cc1ccccc1)NC(=O)c1csc([C@@H](C[C@H](C(C)C)N(C)C(=O)[C@@H](NC(=O)[C@H]2CCCCN2C)C(C)C)OC(C)=O)n1"
Data returned: 7.77

Data request: Another compound to check: "Cn1cc(C=O)c2nccnc21"
Data returned: 107

Data request: Another compound to check: "COC(=O)[C@@H](C)C[C@H](Cc1ccccc1)NC(=O)c1csc([C@@H](C[C@H](C(C)C)N(C)C(=O)C2(NC(=O)[C@H]3CCCCN3C)CCC2)OC(C)=O)n1"
Data returned: 19.4

Data request: Another compound to check: CC1CN1CCCCN1CC1C (centres undefined)
Data returned: 95

Data request: Another compound to check: "Cn1cc(-c2csc(-c3cn(CCCCN4CCCCC4)c4ccc(F)cc34)n2)c2cccnc21"
Data returned: 68.4

---

Test system: SF-295 CNS
Assay: NCI-60 one-dose screen, 48 h
Conditions: 10 µM unless noted
Procedure: Cells are grown in 96 well plates and exposed to the test compound for 48 hours. Compounds are tested at a single concentration, which is 10^-5 M for most compounds. The reported endpoint is percent growth (GI% or GIPRCNT), where numbers from 0 - 100% represent growth inhibition, and numbers from -100% - 0 represent cell death. For example, a value of 40 represents 60% growth inhibition. A value of 0 means no net growth occurred over the course of the experiment. […]
This is part of a sample that, as a whole, favours compounds with a hit. Of some 83,000 tested, about 20% had one in any assay. Calls of active or inactive are those of the source. The calls were made as follows: active = growth percent below 10; inactive = the rest.
Write down the outcome that applies. Available outcomes: T for active, F for inactive

Reference set, count: 10
| compound | group.label |
| --- | --- |
| CC1=C(O)[C@@](C)(CCCCC[C@H](C)CCCCc2ccc(O)cc2)OOC1=O | F |
| C[C@]12CC[C@H]3[C@@H](CC[C@]4(O)C[C@@H](O[C@@H]5O[C@H](CO)[C@@H](O[C@@H]6OC[C@@H](O)[C@H](O)[C@H]6O)[C@H](O)[C@H]5O)CC[C@]34C=O)[C@@]1(O)CC[C@@H]2C1=CC(=O)OC1 | T |
| CC12CCC3C(CCC4Cc5[nH]c6ccccc6c5CC43C)C1CCC2O (stereo not drawn) | T |
| N#C[Se]Cc1cc(-c2ccccc2)n(-c2ccc(S(N)(=O)=O)cc2)n1 | T |
| Clc1ccc(COC(Cn2ccnc2)c2ccc(Cl)cc2Cl)cc1 (stereo not drawn) | F |
| c1ccc(Nc2nc(-c3ccccc3)c[se]2)cc1 | F |
| C/C(=C\c1ccn(-c2ccc(N)cc2)n1)[C@@H]1C[C@@H]2O[C@]2(C)CCC[C@H](C)[C@H](O)[C@@H](C)C(=O)C(C)(C)[C@@H](O)CC(=O)O1 | F |
| O=[N+]([O-])c1cc(I)cc([N+](=O)[O-])c1 | F |
| CCCCCCCCCCCCCCCCCC1OC[C@@H](COC(=O)O[C@@H](C(=O)O[C@H]2C[C@@]3(O)[C@@H](OC(=O)c4ccccc4)[C@@H]4[C@]5(OC(C)=O)CO[C@@H]5C[C@H](O)[C@@]4(C)C(=O)[C@H](OC(C)=O)C(=C2C)C3(C)C)[C@@H](NC(=O)c2ccccc2)c2ccccc2)O1 (stereo partly drawn) | F |
| CC(=O)ONc1ccc([N+](=O)[O-])c(C(F)(F)F)c1 | F |

Data request: Field: outcome | Entry: C[S+]1C=Cc2ccccc2C1c1ccc(Cl)cc1 (stereo not drawn)
Data returned: F

Data request: Another compound to check: "COC(=O)[C@@H](C)C[C@H](Cc1ccccc1)NC(=O)c1csc([C@@H](C[C@H](C(C)C)N(C)C(=O)[C@@H](NC(=O)[C@H]2CCCCN2C)c2ccc(F)cc2)OC(C)=O)n1"
Data returned: T

Data request: Another compound to check: Nc1nc([Se])c2ncn(C3OC(CO)C(O)C3O)c2n1 (stereo not drawn)
Data returned: F

Data request: Another compound to check: "C/C(CC(C)(C)N1CC1)=N\NC(=O)Nc1cccc2ccccc12"
Data returned: F

Data request: Another compound to check: "COc1ccc(C(O)(C(=O)O)c2ccc(OC)cc2)cc1"
Data returned: F

Data request: Another compound to check: CC[C@@H]1[C@@H](C)O[C@@](O)([C@@H](C)[C@H](O)[C@H](C)[C@H]2OC(=O)/C=C/C=C/[C@H](C)[C@@H]([C@@H](C)[C@@H](O)[C@H](C)[C@@]3(O)C[C@@H](O[C@H]4C[C@@H](O)[C@H](O)C(C)O4)[C@H](CC)[C@@H](C)O3)OC(=O)/C=C/C=C/[C@@H]2C)C[C@H]1O[C@@H]1C[C@@H](O)[C@H](O)C(C)O1 (stereo partly drawn)
Data returned: T

Data request: Another compound to check: "Nc1ncnc2n[nH]nc12"
Data returned: F

Data request: Another compound to check: "O=C(CCCCCCC(=O)Nc1ccc(N(CCCl)CCCl)cc1)NO"
Data returned: F

Data request: Another compound to check: CC(CO)NC1CCCCC1 (stereo not drawn)
Data returned: F

Data request: Another compound to check: "C[C@@H]1C[C@@]2(C)[C@@H](CC[C@@H]3[C@@H]2CC[C@]2(C)C(=O)CC[C@@H]32)CC1=O"
Data returned: F

Data request: Another compound to check: O=C(O)C1C(C(=O)O)C2(Cl)C(Cl)=C(Cl)C1(Cl)C2(Cl)Cl.[Hg] (stereo not drawn)
Data returned: F

Data request: Another compound to check: "CC1=C(CCCOC(=O)CN)C2=C(C)C3(CC3)[C@@](C)(O)C(=O)C2=C1"
Data returned: F

Data request: Another compound to check: "CC(=O)O[C@H]1C(=O)[C@@]2(C)[C@H]([C@H](OC(=O)c3ccccc3)[C@]3(O)C[C@H](OC(=O)[C@H](OC(=O)OC[C@H]4COC(C)(C)O4)[C@@H](NC(=O)c4ccccc4)c4ccccc4)C(C)=C1C3(C)C)[C@]1(OC(C)=O)CO[C@@H]1C[C@@H]2O"
Data returned: T

Data request: Another compound to check: "CC1=C(CN)C2=C(C)C3(CC3)[C@@](C)(O)C(=O)C2=C1"
Data returned: F

Data request: Another compound to check: "O=C(c1cccc(O)c1O)c1cn(Cc2ccc(F)cc2)c2cccc(O)c12"
Data returned: F

Data request: Another compound to check: "O=C(Nc1ccncc1F)c1cn(CC2CC2)c2ccccc12"
Data returned: F
